Measured values drawn from ChEMBL document CHEMBL1777726 for this set.

biological target: Sigma non-opioid intracellular receptor 1 (Cavia porcellus); assay: Displacement of [3H](+)-pentazocine from sigma 1 receptor in guinea pig brain by scintillation analyzer
Sequence (Q60492 whole entry): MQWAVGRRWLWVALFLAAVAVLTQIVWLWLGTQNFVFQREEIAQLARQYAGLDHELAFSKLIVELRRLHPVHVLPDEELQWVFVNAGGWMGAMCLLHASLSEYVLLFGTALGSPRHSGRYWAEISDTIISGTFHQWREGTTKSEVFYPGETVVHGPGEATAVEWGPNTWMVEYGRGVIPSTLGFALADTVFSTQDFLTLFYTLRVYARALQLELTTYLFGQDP
PROPERTY_LABEL: Ki (nM)

COC1Cc2ccccc2[C@]2(CC[C@@H](N(C)Cc3ccccc3)CC2)O1 (some centres not stated); 43
COC1Cc2ccccc2[C@]2(CC[C@H](N(C)Cc3ccccc3)CC2)O1 (some centres not stated); 24
COc1ccc(CN[C@H]2CC[C@]3(CC2)OC(OC)Cc2ccccc23)cc1 (some centres not stated); 174
COC1Cc2ccccc2[C@]2(CC[C@H](NCc3ccccc3)CC2)O1 (some centres not stated); 158
COc1ccc(CN[C@H]2CC[C@@]3(CC2)OC(OC)Cc2ccccc23)cc1 (some centres not stated); 169
CN(C)CCc1c[nH]c2ccccc12; 15000
COC1Cc2ccccc2[C@]2(CC[C@@H](NCc3ccccc3)CC2)O1 (some centres not stated); 538
CCN(Cc1ccccc1)[C@H]1CC[C@]2(CC1)OC(OC)Cc1ccccc12 (some centres not stated); 107
